subject-of-test: recombinant human IL-17A/F (produced in CHO cells, R&D Systems 5837-IL) (human, UniProt Q16552 24-155; Q96PD4 31-163, limits assumed)
Sequence (Q16552 24-155 limits assumed, chain 1 of 2): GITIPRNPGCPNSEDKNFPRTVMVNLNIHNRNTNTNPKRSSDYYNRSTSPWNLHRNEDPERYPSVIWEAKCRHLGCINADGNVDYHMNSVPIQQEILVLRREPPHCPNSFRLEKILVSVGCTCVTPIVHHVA
Sequence (Q96PD4 31-163 limits assumed, chain 2 of 2): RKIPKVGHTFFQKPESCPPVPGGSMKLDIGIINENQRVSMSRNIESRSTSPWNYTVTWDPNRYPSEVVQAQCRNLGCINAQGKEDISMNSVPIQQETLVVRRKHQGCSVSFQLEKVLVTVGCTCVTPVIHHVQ
assay-info: cell-based or functional assay
measured-parameter: Neutralization potency, ranking from 1 = the best to 4 (HEK-Blue IL-17 reporter cells) (rank)

Worked cases, Neutralization potency, ranking from 1 = the best to 4 (HEK-Blue IL-17 reporter cells) given:
binder	readout-number
VHH662 (VHH, Control VHH of Ablynx, disclosed in WO2012156219) VHH: EVQLVESGGGSVQAGDSLRLSCAASGRANSINWFGWFRQTPGKEREFVAGIRWSDAYTEYANSVKGRFTISRDNAKNTVDLQMDSLKPEDTAVYYCVLDLSTVRYWGQGTQVTVSS	1
Bm44B04 (VHH, Class B, second generation) VHH: QVQLVESGGGLVRTGGSLRLSCSVSGDISSQSAMGWYRQVPGRQRELVAMIHTTKGDTYYADSVKGRFTISRINANNTIYLQMNNLKPEDTAIYYCTHNEPGDLYMGQGTQVTVSS	1

P = Bm45G07 (VHH, Class D, second generation) VHH: QVQLVESGGGFVQAGGSLKLSCSVSGNTFITNHMGWFRQPPGKGREFVAGIRWSDGSTFYGDSVRGRFTISGDNAKHTLYLQMNSLKPDDTAVYYCYIDSGSDRYYGQGTLVTVSS
Q = Bm43B02 (VHH, Class A, second generation) VHH: QVQLVESGGGLVQAGGSLNLSCVISRRTPSGYAMGWFRQASGKEREFVAAISWIGGGAVYADSVKGRFTMSRDNAKNTVYLQMNSLKPEDTAVYYCNDMPYGLDTTMDDYDYWGQGTLVTVSS
Compare P and Q by numeric Neutralization potency, ranking from 1 = the best to 4 (HEK-Blue IL-17 reporter cells) and name the larger one. Selection: enter the item's label. Q
